Biological target: T1, cynomolgus monkey CXCR4 (cynomolgus monkey, UniProt Q28474 1-352)
T1 construct: whole, on cells; On transiently transfected HEK293T cells or endogenous on the cynomolgus T-cell line HSC-F; also called Cynomolgus CXCR4
T1 sequence (Q28474 whole entry): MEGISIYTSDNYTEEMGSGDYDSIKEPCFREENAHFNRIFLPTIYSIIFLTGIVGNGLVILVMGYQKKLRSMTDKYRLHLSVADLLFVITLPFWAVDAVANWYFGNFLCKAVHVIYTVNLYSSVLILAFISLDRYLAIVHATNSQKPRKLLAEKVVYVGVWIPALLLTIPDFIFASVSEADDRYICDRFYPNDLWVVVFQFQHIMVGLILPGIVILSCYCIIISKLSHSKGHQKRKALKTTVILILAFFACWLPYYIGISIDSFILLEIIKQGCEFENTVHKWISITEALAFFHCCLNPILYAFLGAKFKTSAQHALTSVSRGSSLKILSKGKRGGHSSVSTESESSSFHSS
Experiment: FMAT, hybridoma supernatant on HEK293T cells transiently overexpressing full-length cynomolgus CXCR4
endpoint_label: FL1 x count

stdin: # query: FL1 x count of entry 2A4 (antibody, V domains shown, Fully human monoclonal antibody from XenoMouse hybridoma; also called mAb 2A4; Mab2A4) VH: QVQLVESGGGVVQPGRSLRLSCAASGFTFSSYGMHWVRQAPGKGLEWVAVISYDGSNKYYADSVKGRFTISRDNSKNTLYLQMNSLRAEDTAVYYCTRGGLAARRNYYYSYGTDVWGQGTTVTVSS VL: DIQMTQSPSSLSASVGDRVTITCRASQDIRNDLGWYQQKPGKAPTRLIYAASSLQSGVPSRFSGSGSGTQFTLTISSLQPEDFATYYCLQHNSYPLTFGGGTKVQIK
stdout: 600000

stdin: Look up FL1 x count: 4C1 (antibody, V domains shown, Fully human monoclonal antibody from XenoMouse hybridoma (strains XMG2 IgG2 or XMG4 IgG4, kappa/lambda); Tested as hybridoma supernatant or purified antibody; also called mAb 4C1; Mab4C1) VH: QVQLVESGGGVVQPGRSLRLSCAASGFTFSSYGMHWVRQAPGKGLEWVAVISYDGSNKYYADSVKGRFTISRDNSKNTLYLQMNSLRAEDTAVYYCTRGGLAARRNYYYSYGMDVWGQGTTVTVSS VL: DIQMTQSPSSLSASVGDRVTITCRASQDIRNDLGWYQQKPGKAPKRLIYAASSLQSGVPSRFSGSGSGTQFTLTISSLQPEDFATYYCLQHNSYPLTFGGGTKVQIK
stdout: 293000
